The following molecules are shown together with reported Activity values.
biological target: Melanocortin receptor 5 (Homo sapiens); assay: […] at human MC5R assessed as stimulation of cAMP production; type: functional; design: concentration or dose not given beside the values
Sequence (P33032 whole entry): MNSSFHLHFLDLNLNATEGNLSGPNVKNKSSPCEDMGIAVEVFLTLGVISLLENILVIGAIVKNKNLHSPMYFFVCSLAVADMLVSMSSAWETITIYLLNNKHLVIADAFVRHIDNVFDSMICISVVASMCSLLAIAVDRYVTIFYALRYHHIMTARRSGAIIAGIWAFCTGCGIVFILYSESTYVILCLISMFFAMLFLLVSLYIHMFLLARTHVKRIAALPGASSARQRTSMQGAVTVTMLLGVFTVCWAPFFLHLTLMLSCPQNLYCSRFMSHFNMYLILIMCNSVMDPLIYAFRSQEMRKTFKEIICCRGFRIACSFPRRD
Answer format: numeric, % implied, no suffix.

Please report Activity with Melanocortin receptor 5 (Homo sapiens) for item N#CCC1(C2CCCCC2)CCN(C(=O)[C@H](Cc2ccc(Cl)cc2)NC(=O)[C@H]2Cc3ccccc3CN2)CC1 .
42

System Melanocortin receptor 5 (Homo sapiens). Read-out Activity. Item CN1CCN[C@@H](C(=O)N[C@@H](Cc2ccc(F)cc2)C(=O)N2CCC(C(=O)NC(C)(C)C)(C3CCC(C)(C)CC3)CC2)C1 . Report value.
19

Look up and report Activity, with Melanocortin receptor 5 (Homo sapiens) as system, for CN1CCN[C@@H](C(=O)N[C@@H](Cc2ccc(F)cc2)C(=O)N2CCC(C(=O)NC(C)(C)C)(C3(C)CCCCC3)CC2)C1
56

Give Activity for this entry on Melanocortin receptor 5 (Homo sapiens): CCCCCCC1(Cc2nnnn2C)CCN(C(=O)[C@H](Cc2ccc(Cl)cc2)NC(=O)[C@H]2Cc3ccccc3CN2)CC1
15

Give the observed Activity of CC1CCC(C2(C(=O)NC(C)(C)C)CCN(C(=O)[C@H](Cc3ccc(F)cc3)NC(=O)[C@H]3CN(C)CCN3)CC2)CC1 (some centres not stated) for Melanocortin receptor 5 (Homo sapiens).
27

---
Give Activity; test system Melanocortin receptor 5 (Homo sapiens); molecule CC(C)C1(CC#N)CCN(C(=O)[C@H](Cc2ccc(Cl)cc2)NC(=O)[C@H]2Cc3ccccc3CN2)CC1
20

Report value: Activity, system: Melanocortin receptor 5 (Homo sapiens), molecule: CC(C)CC1(Cc2nnnn2C)CCN(C(=O)[C@H](Cc2ccc(Cl)cc2)NC(=O)[C@H]2Cc3ccccc3CN2)CC1
46
